- experimentalTarget: HER2 (Homo sapiens)
- Sequence (P04626 23-1255): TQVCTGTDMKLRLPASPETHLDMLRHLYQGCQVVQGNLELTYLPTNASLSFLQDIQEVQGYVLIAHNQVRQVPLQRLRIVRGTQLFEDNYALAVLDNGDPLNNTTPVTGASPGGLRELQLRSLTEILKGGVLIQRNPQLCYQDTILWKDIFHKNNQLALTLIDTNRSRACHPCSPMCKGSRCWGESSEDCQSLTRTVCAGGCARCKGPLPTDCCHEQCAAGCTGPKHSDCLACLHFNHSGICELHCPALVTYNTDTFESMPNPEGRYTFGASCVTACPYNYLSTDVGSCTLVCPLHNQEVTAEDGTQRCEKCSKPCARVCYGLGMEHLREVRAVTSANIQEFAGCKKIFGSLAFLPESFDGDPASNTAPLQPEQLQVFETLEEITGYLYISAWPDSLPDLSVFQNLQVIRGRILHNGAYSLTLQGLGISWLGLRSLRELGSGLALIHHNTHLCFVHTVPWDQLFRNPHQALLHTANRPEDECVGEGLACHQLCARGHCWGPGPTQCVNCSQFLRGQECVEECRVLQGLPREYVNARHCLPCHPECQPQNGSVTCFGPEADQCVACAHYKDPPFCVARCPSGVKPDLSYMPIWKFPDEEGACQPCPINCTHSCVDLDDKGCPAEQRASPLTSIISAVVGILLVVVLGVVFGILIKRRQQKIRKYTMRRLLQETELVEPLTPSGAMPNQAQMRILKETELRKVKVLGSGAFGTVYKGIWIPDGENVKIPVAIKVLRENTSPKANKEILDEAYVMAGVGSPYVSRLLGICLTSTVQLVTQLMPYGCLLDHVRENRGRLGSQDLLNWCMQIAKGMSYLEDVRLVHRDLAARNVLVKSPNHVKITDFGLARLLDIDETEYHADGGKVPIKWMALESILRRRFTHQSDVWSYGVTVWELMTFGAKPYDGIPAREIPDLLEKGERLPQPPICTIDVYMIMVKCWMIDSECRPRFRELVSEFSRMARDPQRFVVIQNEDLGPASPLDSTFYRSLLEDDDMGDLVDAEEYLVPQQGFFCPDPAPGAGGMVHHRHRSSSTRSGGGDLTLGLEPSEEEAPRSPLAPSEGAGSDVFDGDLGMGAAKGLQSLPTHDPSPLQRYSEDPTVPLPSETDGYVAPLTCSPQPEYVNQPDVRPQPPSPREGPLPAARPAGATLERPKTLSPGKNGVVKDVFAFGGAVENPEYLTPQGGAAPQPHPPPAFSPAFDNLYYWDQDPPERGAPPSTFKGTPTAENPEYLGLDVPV
- methodSummary: Inhibition of phosphorylation of receptor tyrosine in human breast cancer cells (2), MCF-7, heregulin-stimulated
- Type: cell-based
- Design: Human breast cancer cell line MCF-7 was used; endogenous in cells; host or cells: MCF-7
- conditionsUsed: MCF7, 6.3 μM, heregulin control = 100%, read-out: Phosphorylation of receptor tyrosine residue (%)
recordedEndpoint: activity at 6.3 µM
Quick note: number first, unit second.

inputSmiles | recordedEndpoint | endpointResult
Cc1ccc(-c2nc(COc3ccc(CCCn4ccnc4)cc3)co2)s1 | activity at 6.3 µM | 43%
c1csc(-c2nc(COc3ccc(CCCn4ccnc4)cc3)cs2)c1 | activity at 6.3 µM | 45%
C(=C\c1nc(COc2ccc(CCCn3ccnc3)cc2)co1)/c1ccccc1 | activity at 6.3 µM | 32%
c1csc(-c2nc(COc3ccc(CCCn4ccnc4)cc3)co2)c1 | activity at 6.3 µM | 19%

# next compound below
Query: Identify measured activity at 6.3 µM associated with `c1csc(-c2nc3cc(COc4ccc(CCCCn5ccnc5)cc4)ccc3o2)c1`
Result: 34%

Taken from patent US6211215A.
